# System: c-myc in 22RV-1 cells
# Assay Remarks: Human c-myc ELISA assay
# Type: cell-based
# Assay Conditions: Homo sapiens, 22Rv1, 18 h, read-out: Degradation of BRD4: Maximum inhibition (%) c-Myc ELISA in 22RV1 cells
This listing pairs compounds with measured Emax.
A number alone suffices; assume %.

Compound: Cc1cc(C(C(=O)N2C[C@H](O)C[C@H]2C(=O)NCc2ccc(Cl)cc2OCCOCCOCCOCCNC(=O)C[C@@H]2N=C(c3ccc(Cl)cc3)c3c(sc(C)c3C)-n3c(C)nnc32)C(C)C)on1 (stereo partly shown)
Assay System: c-myc in 22RV-1 cells
Emax, %: 100
//
Compound: CC(=O)N[C@H](C(=O)N1C[C@H](O)C[C@H]1C(=O)NCc1ccc(-c2scnc2C)cc1OCCOCCCOc1ccc(C2=N[C@@H](CC(=O)Nc3ccccc3)c3nnc(C)n3-c3sc(C)c(C)c32)cc1)C(C)(C)C
Assay System: c-myc in 22RV-1 cells
Emax, %: 80.5
//
Compound: Cc1sc2c(c1C)C(c1ccc(Cl)cc1)=N[C@@H](CC(=O)N[C@H]1C[C@@H](Oc3ccc4oc(C(=O)N[C@H](C(=O)N5C[C@H](O)C[C@H]5C(=O)N[C@@H](C)c5ccc(-n6ccnc6C)cc5)C(C)(C)C)cc4c3)C1)c1nnc(C)n1-2
Assay System: c-myc in 22RV-1 cells
Emax, %: 92.7
//
Compound: Cc1ncsc1-c1ccc([C@H](C)NC(=O)[C@@H]2C[C@@H](O)CN2C(=O)[C@@H](NC(=O)Cc2ccc(O[C@H]3C[C@@H](NC(=O)C[C@@H]4N=C(c5ccc(Cl)cc5)c5c(sc(C)c5C)-n5c(C)nnc54)C3)cc2)C(C)(C)C)cc1
Assay System: c-myc in 22RV-1 cells
Emax, %: 99.5
//
Compound: Cc1ncsc1-c1ccc(CNC(=O)[C@@H]2C[C@@H](O)CN2C(=O)[C@@H](NC(=O)Cc2cccc(CCCCNC(=O)C[C@@H]3N=C(c4ccc(Cl)cc4)c4c(sc(C)c4C)-n4c(C)nnc43)c2)C(C)(C)C)cc1
Assay System: c-myc in 22RV-1 cells
Emax, %: 88.8
//
Compound: Cc1ncsc1-c1ccc([C@H](C)NC(=O)[C@@H]2C[C@@H](O)CN2C(=O)[C@H](C(C)C)n2cc(-c3cc(F)cc(OCCNC(=O)C[C@@H]4N=C(c5ccc(Cl)cc5)c5c(sc(C)c5C)-n5c(C)nnc54)c3)cn2)cc1
Assay System: c-myc in 22RV-1 cells
Emax, %: 100
//
Compound: Cc1ncsc1-c1ccc([C@H](C)NC(=O)[C@@H]2C[C@@H](O)CN2C(=O)[C@H](C(C)C)n2cc(-c3cnc(O[C@H]4C[C@H](NC(=O)C[C@@H]5N=C(c6ccc(Cl)cc6)c6c(sc(C)c6C)-n6c(C)nnc65)C4)cn3)cn2)cc1
Assay System: c-myc in 22RV-1 cells
Emax, %: 93.4
//
Compound: Cc1ncsc1-c1ccc([C@H](C)NC(=O)[C@@H]2C[C@@H](O)CN2C(=O)[C@@H](NC(=O)c2cc3ccc(O[C@@H](C)CNC(=O)C[C@@H]4N=C(c5ccc(Cl)cc5)c5c(sc(C)c5C)-n5c(C)nnc54)cc3o2)C(C)(C)C)cc1
Assay System: c-myc in 22RV-1 cells
Emax, %: 100
//
Compound: Cc1ncsc1-c1ccc([C@H](C)NC(=O)[C@@H]2C[C@@H](O)CN2C(=O)[C@@H](NC(=O)CCOCCN2CCN(C(=O)C[C@@H]3N=C(c4ccc(Cl)cc4)c4c(sc(C)c4C)-n4c(C)nnc43)CC2)C(C)(C)C)cc1
Assay System: c-myc in 22RV-1 cells
Emax, %: 79
//
Compound: Cc1ncsc1-c1ccc([C@H](C)NC(=O)[C@@H]2C[C@@H](O)CN2C(=O)[C@@H](NC(=O)Cc2ccc(N3CC[C@@H](NC(=O)C[C@@H]4N=C(c5ccc(Cl)cc5)c5c(sc(C)c5C)-n5c(C)nnc54)C3)cc2)C(C)(C)C)cc1
Assay System: c-myc in 22RV-1 cells
Emax, %: 100

Please give the measured Emax for this compound: Cc1ncsc1-c1ccc([C@H](C)NC(=O)[C@@H]2C[C@@H](O)CN2C(=O)[C@@H](NC(=O)CCc2ccnc(O[C@H]3C[C@H](NC(=O)C[C@@H]4N=C(c5ccc(Cl)cc5)c5c(sc(C)c5C)-n5c(C)nnc54)C3)c2)C(C)(C)C)cc1 93

Please give the measured Emax for this compound: Cc1ncsc1-c1ccc([C@H](C)NC(=O)[C@@H]2C[C@@H](O)CN2C(=O)[C@@H](NC(=O)c2cc3cc(O[C@H]4C[C@@H](NC(=O)C[C@@H]5N=C(c6ccc(Cl)cc6)c6c(sc(C)c6C)-n6c(C)nnc65)C4)ccc3o2)C(C)(C)C)cc1 100

Please give the measured Emax for this compound: Cc1ncsc1-c1ccc([C@H](C)NC(=O)[C@@H]2C[C@@H](O)CN2C(=O)[C@@H](NC(=O)CCc2cc(OCCNC(=O)C[C@@H]3N=C(c4ccc(Cl)cc4)c4c(sc(C)c4C)-n4c(C)nnc43)ccc2F)C(C)(C)C)cc1 98

Please give the measured Emax for this compound: Cc1ncsc1-c1ccc([C@H](C)NC(=O)[C@@H]2C[C@@H](O)CN2C(=O)[C@@H](C(C)C)n2cc(-c3cccc(O[C@H]4C[C@@H](NC(=O)C[C@@H]5N=C(c6ccc(Cl)cc6)c6c(sc(C)c6C)-n6c(C)nnc65)C4)c3)cn2)cc1 49.8

Please give the measured Emax for this compound: Cc1ncsc1-c1ccc([C@H](C)NC(=O)[C@@H]2C[C@@H](O)CN2C(=O)[C@@H](NC(=O)COCCOCCCOc2ccc([C@H](C)NC(=O)CC3N=C(c4ccc(Cl)cc4)c4c(sc(C)c4C)-n4c(C)nnc43)cc2)C(C)(C)C)cc1 (stereo partly shown) 95.4

Please give the measured Emax for this compound: Cc1ncsc1-c1ccc(CNC(=O)[C@@H]2C[C@@H](O)CN2C(=O)[C@@H](c2cc(OCCN3CCC(NC(=O)C[C@@H]4N=C(c5ccc(Cl)cc5)c5c(sc(C)c5C)-n5c(C)nnc54)CC3)no2)C(C)C)cc1 87
